- ASSAY: Selectivity ratio of IC50 for inhibition of 20S proteasome beta 5c subunit (unknown origin) to IC50 for inhibition of 20S proteasome subunit beta-5i
Ratio IC50 values for the compounds below.

Answered examples (2):
Cc1ncsc1-c1ccc(CNC(=O)[C@H](Cc2ccccc2)NC(=O)[C@H](CCC(=O)NC(C)(C)C)NC(=O)CCNC(=O)CCl)cc1 : > 11
Cc1ccc(CNC(=O)[C@H](Cc2ccccc2)NC(=O)[C@H](CC(N)=O)NC(=O)[C@H](CNC(=O)CCl)NC(=O)CN2CCOCC2)cc1 : > 4

Please examine the following record next.
Query string: Please report the measured Ratio IC50 for CC(C)(C)NC(=O)CC[C@H](NC(=O)CCNC(=O)CCl)C(=O)N[C@@H](Cc1ccccc1)C(=O)NCc1ccccc1C(F)(F)F
Result string: > 19
